Assay: Oral bioavailability in cynomolgus monkey at 5 mg/kg by LC-ESI-TOF/MS or LC-ESI-MS/MS method
Assay type: ADME, organism-based, Macaca fascicularis
Conditions: in vivo

- SMILES DATA: "Nc1cc(Nc2cc(Cl)c3n(c2=O)C2(CCCCC2)NC3=O)ncn1"
  UNIT LABEL: "%"
  bioavailability: 50
